- test-target: CYP2B6 (Homo sapiens, UniProt P20813)
- Sequence (P20813 whole entry): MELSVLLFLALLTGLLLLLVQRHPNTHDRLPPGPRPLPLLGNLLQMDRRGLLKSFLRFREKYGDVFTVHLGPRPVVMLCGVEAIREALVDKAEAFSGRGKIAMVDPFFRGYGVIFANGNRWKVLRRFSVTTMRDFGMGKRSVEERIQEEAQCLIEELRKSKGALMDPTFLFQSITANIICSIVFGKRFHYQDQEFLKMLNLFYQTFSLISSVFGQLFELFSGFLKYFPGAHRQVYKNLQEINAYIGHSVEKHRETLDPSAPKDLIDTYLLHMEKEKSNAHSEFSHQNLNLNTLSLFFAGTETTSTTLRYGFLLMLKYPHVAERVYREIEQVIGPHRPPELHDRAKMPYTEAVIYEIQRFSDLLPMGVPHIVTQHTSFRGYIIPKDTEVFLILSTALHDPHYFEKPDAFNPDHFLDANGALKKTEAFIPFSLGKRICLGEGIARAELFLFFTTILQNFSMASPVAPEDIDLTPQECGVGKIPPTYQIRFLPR
- method-notes: in vitro
- condition-parameters: E. coli CYPEX membranes, 100 pmol/mL CYP
value-type: half-life, CYP isoform 2B6

Consider the following illustrative entries.
{"compound": "CN(C)CCc1c[nH]c2ccccc12 [DMT in SPL028i]", "half-life, CYP isoform 2B6": ">4 h"}
{"compound": "CN(C)CCc1c[nH]c2ccccc12 [DMT in SPL028ii]", "half-life, CYP isoform 2B6": ">4 h"}
{"compound": "[2H]C([2H])(Cc1c[nH]c2ccccc12)N(C)C [SPL028ii]", "half-life, CYP isoform 2B6": ">4 h"}

Now turn to the next compound.
-- ask Returns the measured half-life, CYP isoform 2B6 for the input compound. Input: [2H]C([2H])(Cc1c[nH]c2ccccc12)N(C)C [SPL028i]
-- reply >4 h

Each recorded value in this set is attributed to patent US11773062B2.
